The origin of these recorded values is BindingDB's records for doi:10.1016/j.chembiol.2014.09.011.

# subject of test: AMP deaminase 1 (Rattus norvegicus)
# Sequence (P10759 whole entry): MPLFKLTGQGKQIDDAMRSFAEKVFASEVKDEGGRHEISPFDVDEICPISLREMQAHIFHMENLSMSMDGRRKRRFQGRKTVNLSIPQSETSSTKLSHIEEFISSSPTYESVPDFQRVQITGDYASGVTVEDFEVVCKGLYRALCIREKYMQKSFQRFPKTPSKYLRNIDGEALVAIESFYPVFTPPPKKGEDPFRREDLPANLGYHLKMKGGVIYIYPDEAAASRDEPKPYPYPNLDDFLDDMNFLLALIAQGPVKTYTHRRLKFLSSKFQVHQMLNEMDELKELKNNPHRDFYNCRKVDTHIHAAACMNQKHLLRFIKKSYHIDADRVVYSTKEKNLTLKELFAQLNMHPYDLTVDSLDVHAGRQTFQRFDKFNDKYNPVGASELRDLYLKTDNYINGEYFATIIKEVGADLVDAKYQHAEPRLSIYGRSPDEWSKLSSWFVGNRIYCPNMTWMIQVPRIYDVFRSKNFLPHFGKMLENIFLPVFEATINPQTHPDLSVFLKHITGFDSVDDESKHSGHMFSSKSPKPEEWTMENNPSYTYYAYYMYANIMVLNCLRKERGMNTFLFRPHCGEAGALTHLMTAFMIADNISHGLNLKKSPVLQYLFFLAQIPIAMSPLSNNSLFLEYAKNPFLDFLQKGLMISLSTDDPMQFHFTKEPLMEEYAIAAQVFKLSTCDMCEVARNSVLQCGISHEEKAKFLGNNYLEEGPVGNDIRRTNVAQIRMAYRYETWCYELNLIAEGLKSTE

entry smiles	IC50
COc1cc(-c2ccc(CN[C@H](C)c3cccc4ccncc34)cc2)ccc1C(=O)O	20 nM

----------
# subject of test: UniProtKB P23109
# Sequence (P23109 as listed by the source): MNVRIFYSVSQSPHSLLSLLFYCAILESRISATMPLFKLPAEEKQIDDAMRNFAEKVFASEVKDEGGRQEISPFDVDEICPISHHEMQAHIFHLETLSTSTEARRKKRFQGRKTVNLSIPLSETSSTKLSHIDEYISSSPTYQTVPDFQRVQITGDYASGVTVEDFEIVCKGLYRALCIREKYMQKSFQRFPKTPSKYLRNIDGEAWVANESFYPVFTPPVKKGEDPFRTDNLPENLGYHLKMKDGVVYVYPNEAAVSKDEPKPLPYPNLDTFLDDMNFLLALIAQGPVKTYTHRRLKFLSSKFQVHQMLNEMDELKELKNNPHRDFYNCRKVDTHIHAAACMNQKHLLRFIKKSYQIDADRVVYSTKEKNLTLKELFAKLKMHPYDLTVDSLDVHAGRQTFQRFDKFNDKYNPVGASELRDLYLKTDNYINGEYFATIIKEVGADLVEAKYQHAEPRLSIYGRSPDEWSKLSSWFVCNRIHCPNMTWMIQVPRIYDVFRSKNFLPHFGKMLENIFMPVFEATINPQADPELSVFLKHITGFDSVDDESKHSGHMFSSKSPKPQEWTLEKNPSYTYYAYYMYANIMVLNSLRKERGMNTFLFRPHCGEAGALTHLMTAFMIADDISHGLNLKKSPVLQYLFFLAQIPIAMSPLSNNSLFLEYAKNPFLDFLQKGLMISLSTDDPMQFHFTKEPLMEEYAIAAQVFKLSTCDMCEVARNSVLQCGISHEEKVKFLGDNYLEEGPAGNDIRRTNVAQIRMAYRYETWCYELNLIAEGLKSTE
Recorded IC50 values for a group of compounds are listed next.

entry smiles	subject of test	IC50 [µM]
C[C@@H](NCc1ccc(-c2ccc(C(=O)O)cn2)cc1)c1cccc2ccncc12	UniProtKB P23109	9.2
COc1cc(-c2ccc(CN[C@H](C)c3cccc4ccncc34)cc2)ccc1C(=O)O	UniProtKB P23109	0.024

----------
Protein target, amino acids: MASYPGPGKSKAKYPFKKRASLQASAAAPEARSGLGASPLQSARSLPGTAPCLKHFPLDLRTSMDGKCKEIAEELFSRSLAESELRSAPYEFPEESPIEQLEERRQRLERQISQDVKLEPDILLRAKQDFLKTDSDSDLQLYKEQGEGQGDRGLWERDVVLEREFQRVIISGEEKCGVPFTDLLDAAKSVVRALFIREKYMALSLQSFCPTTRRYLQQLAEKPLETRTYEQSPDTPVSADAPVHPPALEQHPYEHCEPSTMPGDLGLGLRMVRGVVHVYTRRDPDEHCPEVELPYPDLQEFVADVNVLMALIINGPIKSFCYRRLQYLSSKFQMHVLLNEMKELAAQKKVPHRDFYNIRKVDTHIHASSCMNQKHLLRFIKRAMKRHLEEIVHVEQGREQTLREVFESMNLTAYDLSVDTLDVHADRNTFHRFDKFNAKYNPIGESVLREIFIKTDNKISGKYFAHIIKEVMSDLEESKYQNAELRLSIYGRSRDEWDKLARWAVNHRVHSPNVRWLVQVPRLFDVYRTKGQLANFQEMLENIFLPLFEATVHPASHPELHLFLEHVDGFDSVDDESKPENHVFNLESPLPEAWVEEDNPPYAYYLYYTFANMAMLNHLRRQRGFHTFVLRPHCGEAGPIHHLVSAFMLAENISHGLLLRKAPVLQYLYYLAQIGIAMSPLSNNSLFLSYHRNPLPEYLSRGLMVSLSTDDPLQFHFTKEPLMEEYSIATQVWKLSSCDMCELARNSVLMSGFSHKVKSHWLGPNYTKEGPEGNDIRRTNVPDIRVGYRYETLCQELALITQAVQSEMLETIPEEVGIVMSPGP

entry smiles	IC50 / µM
COc1cc(-c2ccc(CN[C@H](C)c3cccc4ccncc34)cc2)ccc1C(=O)O	0.3
C[C@H](NCc1ccc(-c2ccc(C(=O)O)cn2)cc1)c1cccc2ccncc12	0.57
